assay: in vitro; conditions: PAMPA
readoutLabel: Papp (×10⁻⁶ cm/s)
Enter your answer as a number in ×10⁻⁶ cm/s; do not include the unit.

Qu. Note Papp for the compound shown: CCn1cc(C(=O)O)c(=O)c2cc(F)c(N3CCNCC3)cc21 [NFX, norfloxacin]
Ans. 0.056

###

For each record, write down the corresponding inhibition at 10 µM.
biological target: Cav1.2 (h) calcium ion channel (Homo sapiens); construct: host or cells: HEK-293; test: Cav1.2 (h) cell-based antagonist calcium flux assay; conditions: HEK293, human recombinant (HEK-293 cells), read-out: % Inhibition of Control Agonist Response, Cav1.2 (h) calcium flux
Sequence (Q13936 whole entry): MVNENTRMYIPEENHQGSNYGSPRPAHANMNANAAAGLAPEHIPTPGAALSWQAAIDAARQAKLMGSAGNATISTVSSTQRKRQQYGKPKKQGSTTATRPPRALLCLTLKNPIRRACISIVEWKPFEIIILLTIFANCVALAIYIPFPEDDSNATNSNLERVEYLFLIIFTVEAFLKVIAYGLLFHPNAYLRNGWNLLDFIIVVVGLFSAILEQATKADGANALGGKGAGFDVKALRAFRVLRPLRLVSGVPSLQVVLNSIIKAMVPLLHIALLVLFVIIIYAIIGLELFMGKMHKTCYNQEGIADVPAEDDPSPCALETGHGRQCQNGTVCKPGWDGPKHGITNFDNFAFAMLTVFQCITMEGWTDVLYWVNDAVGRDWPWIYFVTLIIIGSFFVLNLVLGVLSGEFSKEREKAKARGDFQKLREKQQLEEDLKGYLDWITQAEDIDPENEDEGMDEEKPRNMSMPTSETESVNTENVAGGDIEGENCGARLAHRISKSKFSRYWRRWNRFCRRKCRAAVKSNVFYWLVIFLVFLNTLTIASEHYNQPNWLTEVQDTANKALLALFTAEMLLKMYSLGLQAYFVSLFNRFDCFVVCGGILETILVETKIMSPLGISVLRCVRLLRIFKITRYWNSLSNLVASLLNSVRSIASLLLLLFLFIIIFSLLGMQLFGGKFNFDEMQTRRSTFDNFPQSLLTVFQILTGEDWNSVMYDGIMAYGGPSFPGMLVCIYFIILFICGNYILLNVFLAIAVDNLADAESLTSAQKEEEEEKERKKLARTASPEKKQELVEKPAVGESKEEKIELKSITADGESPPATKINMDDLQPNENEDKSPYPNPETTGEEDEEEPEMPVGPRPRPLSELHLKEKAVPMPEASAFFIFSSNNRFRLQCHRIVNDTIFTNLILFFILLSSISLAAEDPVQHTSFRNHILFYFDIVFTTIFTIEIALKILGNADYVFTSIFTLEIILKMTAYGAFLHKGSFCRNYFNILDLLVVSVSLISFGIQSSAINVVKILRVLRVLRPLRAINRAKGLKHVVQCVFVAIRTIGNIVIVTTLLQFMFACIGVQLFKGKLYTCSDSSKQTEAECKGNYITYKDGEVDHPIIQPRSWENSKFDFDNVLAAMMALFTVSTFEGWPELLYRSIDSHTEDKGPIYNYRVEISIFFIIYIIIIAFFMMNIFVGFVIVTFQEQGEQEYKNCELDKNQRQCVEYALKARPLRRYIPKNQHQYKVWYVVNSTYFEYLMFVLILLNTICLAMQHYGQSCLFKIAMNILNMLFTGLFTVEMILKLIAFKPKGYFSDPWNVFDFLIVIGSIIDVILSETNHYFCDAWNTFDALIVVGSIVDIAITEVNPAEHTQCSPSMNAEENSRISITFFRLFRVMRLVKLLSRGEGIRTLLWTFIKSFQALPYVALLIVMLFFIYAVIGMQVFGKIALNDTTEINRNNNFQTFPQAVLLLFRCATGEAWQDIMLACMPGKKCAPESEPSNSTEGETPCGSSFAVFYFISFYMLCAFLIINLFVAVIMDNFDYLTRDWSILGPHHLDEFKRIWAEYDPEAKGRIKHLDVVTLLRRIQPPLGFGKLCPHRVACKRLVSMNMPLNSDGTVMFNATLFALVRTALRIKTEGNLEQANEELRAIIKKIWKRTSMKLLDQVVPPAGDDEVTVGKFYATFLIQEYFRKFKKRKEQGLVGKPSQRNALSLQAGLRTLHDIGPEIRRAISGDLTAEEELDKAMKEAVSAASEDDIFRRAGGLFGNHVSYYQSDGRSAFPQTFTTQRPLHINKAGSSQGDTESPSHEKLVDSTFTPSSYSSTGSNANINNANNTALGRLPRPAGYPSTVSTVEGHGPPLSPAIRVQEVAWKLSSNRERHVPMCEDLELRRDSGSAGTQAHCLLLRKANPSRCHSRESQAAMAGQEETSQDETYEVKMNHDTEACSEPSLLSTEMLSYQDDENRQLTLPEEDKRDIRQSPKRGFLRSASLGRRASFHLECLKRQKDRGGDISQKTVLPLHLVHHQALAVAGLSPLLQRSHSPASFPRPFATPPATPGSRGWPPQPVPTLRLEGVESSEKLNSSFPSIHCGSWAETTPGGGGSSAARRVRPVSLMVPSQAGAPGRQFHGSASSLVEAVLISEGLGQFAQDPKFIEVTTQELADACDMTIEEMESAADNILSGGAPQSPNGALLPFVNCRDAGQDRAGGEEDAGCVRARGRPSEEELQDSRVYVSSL
Sequence (Q08289 whole entry partner): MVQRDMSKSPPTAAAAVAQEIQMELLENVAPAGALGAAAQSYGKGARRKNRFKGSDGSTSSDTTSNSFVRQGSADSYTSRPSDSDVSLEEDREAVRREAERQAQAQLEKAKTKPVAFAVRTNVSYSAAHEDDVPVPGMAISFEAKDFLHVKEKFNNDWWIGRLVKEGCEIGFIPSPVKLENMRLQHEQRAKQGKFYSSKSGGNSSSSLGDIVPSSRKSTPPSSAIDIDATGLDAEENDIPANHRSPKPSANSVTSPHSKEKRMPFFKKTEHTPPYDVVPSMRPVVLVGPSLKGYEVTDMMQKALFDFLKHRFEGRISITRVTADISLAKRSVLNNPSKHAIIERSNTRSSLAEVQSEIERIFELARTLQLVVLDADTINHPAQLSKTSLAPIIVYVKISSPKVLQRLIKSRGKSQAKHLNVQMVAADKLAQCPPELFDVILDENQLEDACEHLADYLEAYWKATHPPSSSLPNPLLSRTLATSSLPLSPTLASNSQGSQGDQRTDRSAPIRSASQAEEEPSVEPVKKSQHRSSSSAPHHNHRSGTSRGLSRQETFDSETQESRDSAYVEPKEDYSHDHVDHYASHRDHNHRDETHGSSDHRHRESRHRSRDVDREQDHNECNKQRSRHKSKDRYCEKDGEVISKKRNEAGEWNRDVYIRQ
Sequence (P54289 25-956 partner limits assumed): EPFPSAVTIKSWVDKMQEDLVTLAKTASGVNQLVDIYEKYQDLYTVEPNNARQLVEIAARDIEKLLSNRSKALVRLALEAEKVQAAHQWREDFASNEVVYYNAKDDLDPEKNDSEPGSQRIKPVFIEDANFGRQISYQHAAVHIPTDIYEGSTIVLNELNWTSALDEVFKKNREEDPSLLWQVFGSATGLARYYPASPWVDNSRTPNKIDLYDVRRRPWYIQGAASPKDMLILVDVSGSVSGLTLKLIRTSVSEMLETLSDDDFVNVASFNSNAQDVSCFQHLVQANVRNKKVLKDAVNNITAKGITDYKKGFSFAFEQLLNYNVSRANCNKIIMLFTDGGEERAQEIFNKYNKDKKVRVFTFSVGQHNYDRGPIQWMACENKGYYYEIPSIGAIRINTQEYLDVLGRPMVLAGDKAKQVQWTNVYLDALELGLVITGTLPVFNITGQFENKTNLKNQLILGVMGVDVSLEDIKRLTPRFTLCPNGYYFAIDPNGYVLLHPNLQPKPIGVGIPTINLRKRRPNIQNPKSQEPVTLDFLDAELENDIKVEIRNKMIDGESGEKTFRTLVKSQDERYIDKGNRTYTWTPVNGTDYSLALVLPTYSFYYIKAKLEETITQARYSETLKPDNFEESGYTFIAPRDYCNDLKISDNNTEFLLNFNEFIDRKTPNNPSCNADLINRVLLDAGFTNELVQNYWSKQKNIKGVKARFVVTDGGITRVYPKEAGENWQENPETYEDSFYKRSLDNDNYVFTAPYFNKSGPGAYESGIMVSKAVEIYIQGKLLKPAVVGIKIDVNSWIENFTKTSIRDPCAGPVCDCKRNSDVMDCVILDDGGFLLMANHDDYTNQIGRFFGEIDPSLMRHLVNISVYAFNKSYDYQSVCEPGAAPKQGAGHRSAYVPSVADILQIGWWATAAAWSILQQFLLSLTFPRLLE
Sequence (P54289 957-1103 partner limits assumed): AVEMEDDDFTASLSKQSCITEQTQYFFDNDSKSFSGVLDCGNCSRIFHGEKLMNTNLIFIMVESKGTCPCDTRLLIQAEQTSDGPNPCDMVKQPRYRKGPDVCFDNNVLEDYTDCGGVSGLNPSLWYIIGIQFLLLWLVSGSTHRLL

Qu. Recall the reported inhibition at 10 µM of O=C(NCCc1cccc(OC(F)(F)F)c1)C(c1ccccc1)N1C(=O)CCC1=O (centres unmarked) on Cav1.2 (h) calcium ion channel (Homo sapiens) and write it down.
Ans. 49%

Qu. Name the value of inhibition at 10 µM reported for O=C(NCCc1cccc(Cl)c1)C(c1ccccc1)N1C(=O)CCC1=O (centres unmarked) when tested on Cav1.2 (h) calcium ion channel (Homo sapiens).
Ans. 40%

Qu. Write down the reported inhibition at 10 µM (system: Cav1.2 (h) calcium ion channel (Homo sapiens)) of O=C(NCc1ccccc1C(F)(F)F)C(c1ccccc1)N1C(=O)CCC1=O (centres unmarked)
Ans. 27%

Qu. Report inhibition at 10 µM from Cav1.2 (h) calcium ion channel (Homo sapiens) testing of O=C(NCc1cccc(OC(F)(F)F)c1)C(c1ccccc1)N1C(=O)CCC1=O (centres unmarked)
Ans. 38.8%

Qu. # lookup: Cav1.2 (h) calcium ion channel (Homo sapiens) inhibition at 10 µM, key = O=C(NCCc1cccc(C(F)(F)F)c1)C(c1ccccc1)N1C(=O)CCC1=O (centres unmarked)
Ans. 45%
